Readings of cell viability for the listed compounds
tested on: MOLM14; assay: cell viability relative to vehicle control; higher = less cytotoxic; conditions: 10 µM; SRSF2 genotype: SRSF2 wt/wt;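 further: after 48 h exposure read by CellTiter-Glo luminescence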
The answer should read as a number with its unit following.

Worked cases, answers included:
{"columns": ["compound", "dataValue"],
 "data": [
  ["O=C(CCCCc1ccc2c(c1)OCO2)N1CCCCC1 [Tetrahydropiperine]", "93.9%"],
  ["O=C(/C=C\\n1cnc(-c2cc(C(F)(F)F)cc(C(F)(F)F)c2)n1)NNc1ccccn1 [Verdinexor (KPT-335)]", "1.01%"],
  ["COC(=O)C1=C(C)NC(C)=C(C(=O)OCCN2CCN(C(c3ccccc3)c3ccccc3)CC2)C1c1cccc([N+](=O)[O-])c1 (stereo not given) [Manidipine (Manyper)]", "64.2%"],
  ["Cc1ccc(C(=O)Cn2c3c(sc2=N)CCCC3)cc1", "96.9%"]
]}

Query: For CC/C(=C(\c1ccc(O)cc1)c1ccc(OCCN(C)C)cc1)c1ccccc1 [4-Hydroxytamoxifen] , write its cell viability.
Result: 27.8%
